This collection of values is drawn from paper PMC4771712.

study.system: T1, GST fusion of the FAT (focal adhesion targeting) domain of focal adhesion kinase, human FAK 892-1052 (human, UniProt Q05397 892-1052)
T1 construct: focal adhesion kinase (FAK), human, FAT domain, residues 892-1052; Cloned into pGEX4T1; For the pull-down provided by Dr. M. K. Hoellerer; for bio-layer interferometry the same construct was synthesised (GeneArt) and made by the same procedure; also called GST-FAT; GST labeled FAT; source: E. coli BL21 (DE3), purified using GST-4B beads
T1 sequence (looked up): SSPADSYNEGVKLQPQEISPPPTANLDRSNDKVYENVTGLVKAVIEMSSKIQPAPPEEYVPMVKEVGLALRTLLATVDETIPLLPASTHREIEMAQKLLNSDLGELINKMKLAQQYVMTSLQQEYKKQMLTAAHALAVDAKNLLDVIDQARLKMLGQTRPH
protocol: BLI; GST-FAT immobilised on Anti-GST biosensors (20 μg/ml in PBS), paxillin constructs as analytes in PBS with Tween 20 (0.05%) and BSA (1%), Octet RED96, global fitting (B2 1:1 model, C35_1 to C35_3 2:1 model)
measurement.conditions: both partners purified
I'd appreciate it if you could supply koff values for the items below.
Dear colleague, please return just the value in s⁻¹, with no unit written.

Q: Item under review: paxillin Construct C35_1 (54-189) (domain or fragment, human, UniProt P49023-2 54-189, looked up, human paxillin residues 54-189; Cloned into pET28a; source: E. coli BL21DE3, purified) SSEALNGTILDPLDQWQPSSSRFIHQQPQSSSPVYGSSAKTSSVSNPQDSVGSPCSRVGEEEHVYSFPNKQKSAEPSPTVMSTSLGSNLSELDRLLLELNAVQHNPPGFPADEANSSPPLPGALSPLYGVPETNSP . Reported koff?
Result: 0.121

Q: Item under review: paxillin construct B2, expressed in E. coli for bio-layer interferometry (domain or fragment) SSEALNGTILDPLDQWQPSSSRFIHQQPQSSSPVYGSSAKTSSVSNPQDSVGSPCSRVGEEEHVYSFPNKQKSAEPSPTVMSTSLGSNLSELDRLLLELNAVQHNPPGFPADEANSSPPLPGALSPLYGVPETNSPLGGKAGPLTKEKPKRNGGRGLEDVRPSVESLLDELESSVPSPVPAITVNQGEMSSPQRVTSTQQQTRISASSATRELDELMASLSDFKFM . Reported koff?
Result: 0.00171

Q: Item under review: paxillin Construct C35_3 (105-189) (domain or fragment, human, UniProt P49023-2 105-189, looked up, human paxillin residues 105-189; Cloned into pET28a; source: E. coli BL21DE3, purified) GSPCSRVGEEEHVYSFPNKQKSAEPSPTVMSTSLGSNLSELDRLLLELNAVQHNPPGFPADEANSSPPLPGALSPLYGVPETNSP . Reported koff?
Result: 0.106

Q: Item under review: paxillin Construct C35_2 (79-189) (domain or fragment, human, UniProt P49023-2 79-189, looked up, human paxillin residues 79-189; Cloned into pET28a; source: E. coli BL21DE3, purified) QQPQSSSPVYGSSAKTSSVSNPQDSVGSPCSRVGEEEHVYSFPNKQKSAEPSPTVMSTSLGSNLSELDRLLLELNAVQHNPPGFPADEANSSPPLPGALSPLYGVPETNSP . Reported koff?
Result: 0.164
